System: methicillin-resistant Staphylococcus aureus MRSA-2 (clinical isolate)
Test: MIC broth microdilution, MRSA-2
Format: cell-based
Settings: Table 2A
Marks after values point to notes of the source that are not given here.
# key: entry, value: MRSA-2 MIC

# compound, MRSA-2 MIC
data = [
    ("CCCCCCCCCCCCCCCCn1cc[n+](CCO)c1C.[Br-] [Compound 11]", "1.56 µM"),
    ("CCCCCCCCCCCCCCCCn1c(C)[n+](Cc2ccccc2)c2ccccc21.[Br-] [Compound 25]", "3.13 µM"),
    ("CCCCCCCCCCCCCCCCn1cc(-c2ccccc2)[n+](C)n1.[I-] [Compound 30]", "3.13 µM"),
    ("CCCCCCCCCCCC[N+](C)(C)CC[N+](C)(C)CC[N+](C)(C)CCCCCCCCCCCC [QAC-10, reference compound]", "2.35^a μM"),
    ("CCCCCCCCCCCCCCCCn1cc[n+](Cc2cccc(F)c2)c1C.[Br-] [Compound 18]", "2.35^a μM"),
    ("CCCCCCCCCCCCCCCCn1cc[n+](Cc2ccc(F)cc2C(F)(F)F)c1C.[Br-] [Compound 16]", "3.13 µM"),
]
